- MEASURED TARGET: phosphodiesterase II from heart (Cavia porcellus, UniProt A0A286XUV5)
pIC50: −log10 of the molar value.
REPORTED PROPERTY: pIC50

Request the reported pIC50 associated with CC1CC(=O)NN=C1c1c(C(C)C)nn2ccccc12 (stereo not shown) [Example 36]
< 3.95

----------
- MEASURED TARGET: phosphodiesterase II from respiratory tract (Cavia porcellus, UniProt A0A286XUV5)
- Construct: fractions were extracted from respiratory tract and heart of guinea pig; from tissue; host or cells: guinea pig respiratory tract
- Sequence (A0A286XUV5 22-936): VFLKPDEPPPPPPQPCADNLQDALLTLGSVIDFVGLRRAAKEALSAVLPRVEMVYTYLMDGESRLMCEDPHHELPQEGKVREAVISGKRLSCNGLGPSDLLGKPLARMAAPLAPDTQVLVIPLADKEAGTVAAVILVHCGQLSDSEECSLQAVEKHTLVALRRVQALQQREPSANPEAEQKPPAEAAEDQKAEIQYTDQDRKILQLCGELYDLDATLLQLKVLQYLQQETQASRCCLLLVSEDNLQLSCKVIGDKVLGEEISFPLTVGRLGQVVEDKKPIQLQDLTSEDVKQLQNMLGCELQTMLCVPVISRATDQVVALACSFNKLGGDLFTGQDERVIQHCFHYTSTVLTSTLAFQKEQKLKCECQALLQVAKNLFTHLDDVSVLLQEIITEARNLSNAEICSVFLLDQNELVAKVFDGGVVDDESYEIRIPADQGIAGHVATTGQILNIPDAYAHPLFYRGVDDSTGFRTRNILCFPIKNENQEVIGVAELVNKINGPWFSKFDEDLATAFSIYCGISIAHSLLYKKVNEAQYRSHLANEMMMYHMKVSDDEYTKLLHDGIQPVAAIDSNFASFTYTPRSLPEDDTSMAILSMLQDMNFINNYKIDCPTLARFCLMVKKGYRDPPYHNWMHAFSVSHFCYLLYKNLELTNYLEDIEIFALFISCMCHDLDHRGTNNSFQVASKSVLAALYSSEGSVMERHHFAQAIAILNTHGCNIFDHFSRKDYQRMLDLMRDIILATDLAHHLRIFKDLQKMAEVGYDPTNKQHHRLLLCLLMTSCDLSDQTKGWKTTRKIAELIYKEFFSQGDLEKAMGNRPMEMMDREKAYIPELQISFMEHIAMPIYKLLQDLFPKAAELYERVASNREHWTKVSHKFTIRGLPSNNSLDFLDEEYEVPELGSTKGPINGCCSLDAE
- PROCEDURE SUMMARY: Measurement of phosphodiesterase-inhibiting activity, respiratory tract, II
- Format: biochemical
- CONDITION INFO: guinea pig respiratory tract; 1 μM cAMP or cGMP substrate, 60 minutes at 30° C., EIA
- Source text: Measurement of phosphodiesterase-inhibiting activity Phosphodiestorase-containing fractions were extracted from respiratory tract and heart of guinea pig according to the method of Nicholson et al (Br. J. Pharmacol., 97, 889-897 (1989)), and used as enzyme solutions. […] 2) Quantitative determination through EIA […]
pIC50: −log10 of the molar value.
REPORTED PROPERTY: pIC50

Given CC1CC(=O)NN=C1c1c(C(C)C)nn2ccccc12 (stereo not shown) [Example 36] , state its recorded pIC50.
< 3.95
